- System: edema caused by intradermal injection of human recombinant IL-1β in the mouse ear
- Test: Ear edema by intradermal recombinant human IL-1β
- Assay type: in vivo, BALB/c mice
- Settings: antagonist administered intraperitoneally
- Experimental: Female BALB/c mice (Simonsen Laboratories, Gilroy, Calif.), 7-8 weeks old, were housed at 23-25° C. in groups not exceeding five animals per cage [28 cm (L)×18 cm (W)×13 cm (H)]. […] Mice were anesthetized with 10% pentobarbital sodium solution (1 mg/mouse, 50 mg/ml, Nembutal sodium solution; Abbott Laboratories, North Chicago, Ill.). […] Ear thickness was expressed in cubic centimeters and was measured at least twice at each time point. […]
Recorded endpoint: effect of antagonist on anti-inflammatory effect of centrally administered α-MSH (1-13)

Molecule	Test value
Cc1ccc(N(CC2=NCCN2)c2cccc(O)c2)cc1 [phentolamine]	did not alter
CN1[C@@H]2CC[C@H]1C[C@@H](OC(=O)C(CO)c1ccccc1)C2 (some centres unmarked) [atropine]	did not alter
